- subject-of-test: CLC-0 E166C/K519M mutant (E127/K519M) (Torpedo marmorata, UniProt P21564, C212S/E166C/K519M)
- Assay type: cell-based
- run-parameters: read-out: Apparent affinity (K1/2); −100 mV
observed-property: IC50 (µM)
Answer in µM, number only, no unit symbol.

Form field IC50, entry O=C(O)COc1ccc(Cl)cc1 [CPA, p-chlorophenoxy acetate] : 141

====

- subject-of-test: wild-type CLC-0 (E166, C212S background) (Torpedo marmorata, UniProt P21564, C212S)
- Type: cell-based
- run-parameters: read-out: Apparent affinity (K1/2); −60 mV
observed-property: IC50 (mM)
# unit: mM | format: bare number

CCCCCCCC(=O)O [octanoate]
1.29

Please look at the following compound next.
Noted for O=C(O)COc1ccc(Cl)cc1 [CPA, p-chlorophenoxy acetate] : its IC50 reads 5.22

====

- subject-of-test: CLC-0 E166C/E127Q mutant (E127Q/K519) (Torpedo marmorata, UniProt P21564, C212S/E127Q/E166C)
- Sequence (P21564 1-805 E127Q/E166C/C212S): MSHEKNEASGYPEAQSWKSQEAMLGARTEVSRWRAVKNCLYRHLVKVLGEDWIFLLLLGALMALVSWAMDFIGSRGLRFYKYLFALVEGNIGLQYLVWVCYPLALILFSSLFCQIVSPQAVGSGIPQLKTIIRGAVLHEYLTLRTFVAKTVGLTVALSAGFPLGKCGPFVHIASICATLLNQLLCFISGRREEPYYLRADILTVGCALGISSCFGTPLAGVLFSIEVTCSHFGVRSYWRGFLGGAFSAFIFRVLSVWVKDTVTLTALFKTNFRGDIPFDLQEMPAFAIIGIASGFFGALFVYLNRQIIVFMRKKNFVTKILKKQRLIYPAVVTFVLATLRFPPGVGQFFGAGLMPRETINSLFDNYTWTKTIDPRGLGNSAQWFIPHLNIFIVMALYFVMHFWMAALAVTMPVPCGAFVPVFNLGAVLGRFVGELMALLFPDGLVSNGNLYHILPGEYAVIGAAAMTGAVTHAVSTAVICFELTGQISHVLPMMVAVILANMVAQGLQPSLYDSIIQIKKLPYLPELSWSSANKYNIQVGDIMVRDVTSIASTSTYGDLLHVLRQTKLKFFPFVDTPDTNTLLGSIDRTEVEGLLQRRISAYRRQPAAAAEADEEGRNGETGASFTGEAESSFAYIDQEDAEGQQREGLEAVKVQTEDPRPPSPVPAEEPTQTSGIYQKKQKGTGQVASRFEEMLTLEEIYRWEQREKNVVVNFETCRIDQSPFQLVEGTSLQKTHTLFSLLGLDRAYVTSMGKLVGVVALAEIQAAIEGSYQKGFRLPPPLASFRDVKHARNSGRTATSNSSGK
- Format: cell-based
- run-parameters: read-out: Apparent affinity (K1/2); −120 mV
observed-property: pIC50
Just so you know, pIC50 here is -log10 of the concentration in molar units; reply with that number alone.

pIC50 reported for this molecule O=C(O)COc1ccc(Cl)cc1 [CPA, p-chlorophenoxy acetate] : 4.48

====

- subject-of-test: CLC-0 E166C/K519E mutant (E127/K519E) (Torpedo marmorata, UniProt P21564, C212S/E166C/K519E)
- Type: cell-based
- run-parameters: read-out: Apparent affinity (K1/2); −120 mV
observed-property: pIC50
pIC50 is defined as minus the log10 of a concentration measured in mol/L.

Form field pIC50, entry O=C(O)COc1ccc(Cl)cc1 [CPA, p-chlorophenoxy acetate] : 3.69

====

- subject-of-test: CLC-0 E166C/E127Q/K519E mutant (Torpedo marmorata, UniProt P21564, C212S/E127Q/E166C/K519E)
- Assay type: cell-based
- run-parameters: read-out: Apparent affinity (K1/2); −140 mV
observed-property: IC50 (µM)
Hi! Could you send only the number? It should be in µM, unit omitted.

Recorded result, O=C(O)COc1ccc(Cl)cc1 [CPA, p-chlorophenoxy acetate] , IC50: 62

====

- subject-of-test: CLC-0 E166W mutant (Torpedo marmorata, UniProt P21564, C212S/E166W)
- Type: cell-based
- run-parameters: read-out: Apparent affinity (K1/2); −160 mV
observed-property: IC50
# answer = value followed by unit

O=C(O)COc1ccc(Cl)cc1 [CPA, p-chlorophenoxy acetate]
0.55 mM

compound CCCCCCCC(=O)O [octanoate] , IC50 observed: 3.5 mM

====

- subject-of-test: CLC-0 E166W mutant (Torpedo marmorata, UniProt P21564, C212S/E166W)
- Sequence (P21564 1-805 E166W/C212S): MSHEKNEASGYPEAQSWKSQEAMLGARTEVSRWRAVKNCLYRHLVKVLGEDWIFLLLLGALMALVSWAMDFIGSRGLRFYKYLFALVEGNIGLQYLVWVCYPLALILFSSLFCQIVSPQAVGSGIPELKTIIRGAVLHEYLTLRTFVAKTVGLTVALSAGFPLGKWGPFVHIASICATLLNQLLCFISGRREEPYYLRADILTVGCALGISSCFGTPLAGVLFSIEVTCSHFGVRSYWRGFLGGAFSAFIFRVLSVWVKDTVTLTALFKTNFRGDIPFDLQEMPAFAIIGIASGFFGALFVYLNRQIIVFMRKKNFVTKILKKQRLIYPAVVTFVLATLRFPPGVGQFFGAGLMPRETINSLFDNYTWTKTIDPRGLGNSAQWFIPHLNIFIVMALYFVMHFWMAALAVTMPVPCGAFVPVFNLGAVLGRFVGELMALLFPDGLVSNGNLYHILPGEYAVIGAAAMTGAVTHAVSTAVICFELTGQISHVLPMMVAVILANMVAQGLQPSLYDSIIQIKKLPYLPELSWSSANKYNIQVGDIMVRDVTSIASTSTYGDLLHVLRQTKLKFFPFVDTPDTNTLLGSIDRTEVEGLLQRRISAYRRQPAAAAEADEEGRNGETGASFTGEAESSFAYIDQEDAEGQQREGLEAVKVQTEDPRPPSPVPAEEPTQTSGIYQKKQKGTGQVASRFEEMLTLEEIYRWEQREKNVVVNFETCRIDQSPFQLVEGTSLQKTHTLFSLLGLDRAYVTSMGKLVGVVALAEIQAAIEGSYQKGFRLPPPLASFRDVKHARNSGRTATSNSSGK
- Assay type: cell-based
- run-parameters: read-out: Apparent affinity (K1/2); −60 mV
observed-property: pIC50
When answering, recall that pIC50 equals minus log10 of the concentration in mol/L, and write that number alone.

Bench note, CLC-0 E166W mutant (Torpedo marmorata, UniProt P21564, C212S/E166W): entry O=C(O)COc1ccc(Cl)cc1 [CPA, p-chlorophenoxy acetate] , its pIC50 = 1.88

====

- subject-of-test: CLC-0 E166C/K519M mutant (E127/K519M) (Torpedo marmorata, UniProt P21564, C212S/E166C/K519M)
- Type: cell-based
- run-parameters: read-out: Apparent affinity (K1/2); −120 mV
observed-property: IC50 (µM)
Just the number in µM, nothing appended.

// O=C(O)COc1ccc(Cl)cc1 [CPA, p-chlorophenoxy acetate] : IC50 value = 98

====

- subject-of-test: CLC-0 E166Y mutant (Torpedo marmorata, UniProt P21564, C212S/E166Y)
- Sequence (P21564 1-805 E166Y/C212S): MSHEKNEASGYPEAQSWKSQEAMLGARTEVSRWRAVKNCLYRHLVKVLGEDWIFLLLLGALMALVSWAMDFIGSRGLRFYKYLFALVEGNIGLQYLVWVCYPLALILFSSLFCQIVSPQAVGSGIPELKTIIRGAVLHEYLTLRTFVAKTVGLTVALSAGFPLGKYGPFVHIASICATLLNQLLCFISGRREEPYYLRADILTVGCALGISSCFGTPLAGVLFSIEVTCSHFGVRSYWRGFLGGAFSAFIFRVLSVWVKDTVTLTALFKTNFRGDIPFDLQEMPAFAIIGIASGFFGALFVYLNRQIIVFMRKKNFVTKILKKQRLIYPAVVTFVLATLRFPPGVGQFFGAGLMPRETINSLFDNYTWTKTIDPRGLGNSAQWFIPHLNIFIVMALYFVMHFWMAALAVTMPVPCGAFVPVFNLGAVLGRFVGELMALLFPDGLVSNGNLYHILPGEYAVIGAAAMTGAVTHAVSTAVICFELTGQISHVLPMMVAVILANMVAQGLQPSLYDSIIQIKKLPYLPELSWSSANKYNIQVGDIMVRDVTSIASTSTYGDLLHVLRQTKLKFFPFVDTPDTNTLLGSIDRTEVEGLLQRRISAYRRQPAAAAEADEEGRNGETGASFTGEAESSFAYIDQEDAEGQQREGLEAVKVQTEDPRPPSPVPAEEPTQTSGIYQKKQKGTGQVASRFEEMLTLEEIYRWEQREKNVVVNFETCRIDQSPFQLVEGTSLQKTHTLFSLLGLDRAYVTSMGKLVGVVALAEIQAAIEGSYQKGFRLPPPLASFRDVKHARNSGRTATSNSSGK
- Type: cell-based
- run-parameters: read-out: Apparent affinity (K1/2); −40 mV
observed-property: IC50 (mM)
# unit: mM | format: bare number

Record O=C(O)COc1ccc(Cl)cc1 [CPA, p-chlorophenoxy acetate] ; system CLC-0 E166Y mutant (Torpedo marmorata, UniProt P21564, C212S/E166Y); IC50 = 6.18
